TGT: Sodium channel alpha subunits; brain (Types I, II, III) (Homo sapiens, UniProt P35498+Q99250+Q9NY46)
Sequence (Q99250 whole entry, looked up, other chains not shown): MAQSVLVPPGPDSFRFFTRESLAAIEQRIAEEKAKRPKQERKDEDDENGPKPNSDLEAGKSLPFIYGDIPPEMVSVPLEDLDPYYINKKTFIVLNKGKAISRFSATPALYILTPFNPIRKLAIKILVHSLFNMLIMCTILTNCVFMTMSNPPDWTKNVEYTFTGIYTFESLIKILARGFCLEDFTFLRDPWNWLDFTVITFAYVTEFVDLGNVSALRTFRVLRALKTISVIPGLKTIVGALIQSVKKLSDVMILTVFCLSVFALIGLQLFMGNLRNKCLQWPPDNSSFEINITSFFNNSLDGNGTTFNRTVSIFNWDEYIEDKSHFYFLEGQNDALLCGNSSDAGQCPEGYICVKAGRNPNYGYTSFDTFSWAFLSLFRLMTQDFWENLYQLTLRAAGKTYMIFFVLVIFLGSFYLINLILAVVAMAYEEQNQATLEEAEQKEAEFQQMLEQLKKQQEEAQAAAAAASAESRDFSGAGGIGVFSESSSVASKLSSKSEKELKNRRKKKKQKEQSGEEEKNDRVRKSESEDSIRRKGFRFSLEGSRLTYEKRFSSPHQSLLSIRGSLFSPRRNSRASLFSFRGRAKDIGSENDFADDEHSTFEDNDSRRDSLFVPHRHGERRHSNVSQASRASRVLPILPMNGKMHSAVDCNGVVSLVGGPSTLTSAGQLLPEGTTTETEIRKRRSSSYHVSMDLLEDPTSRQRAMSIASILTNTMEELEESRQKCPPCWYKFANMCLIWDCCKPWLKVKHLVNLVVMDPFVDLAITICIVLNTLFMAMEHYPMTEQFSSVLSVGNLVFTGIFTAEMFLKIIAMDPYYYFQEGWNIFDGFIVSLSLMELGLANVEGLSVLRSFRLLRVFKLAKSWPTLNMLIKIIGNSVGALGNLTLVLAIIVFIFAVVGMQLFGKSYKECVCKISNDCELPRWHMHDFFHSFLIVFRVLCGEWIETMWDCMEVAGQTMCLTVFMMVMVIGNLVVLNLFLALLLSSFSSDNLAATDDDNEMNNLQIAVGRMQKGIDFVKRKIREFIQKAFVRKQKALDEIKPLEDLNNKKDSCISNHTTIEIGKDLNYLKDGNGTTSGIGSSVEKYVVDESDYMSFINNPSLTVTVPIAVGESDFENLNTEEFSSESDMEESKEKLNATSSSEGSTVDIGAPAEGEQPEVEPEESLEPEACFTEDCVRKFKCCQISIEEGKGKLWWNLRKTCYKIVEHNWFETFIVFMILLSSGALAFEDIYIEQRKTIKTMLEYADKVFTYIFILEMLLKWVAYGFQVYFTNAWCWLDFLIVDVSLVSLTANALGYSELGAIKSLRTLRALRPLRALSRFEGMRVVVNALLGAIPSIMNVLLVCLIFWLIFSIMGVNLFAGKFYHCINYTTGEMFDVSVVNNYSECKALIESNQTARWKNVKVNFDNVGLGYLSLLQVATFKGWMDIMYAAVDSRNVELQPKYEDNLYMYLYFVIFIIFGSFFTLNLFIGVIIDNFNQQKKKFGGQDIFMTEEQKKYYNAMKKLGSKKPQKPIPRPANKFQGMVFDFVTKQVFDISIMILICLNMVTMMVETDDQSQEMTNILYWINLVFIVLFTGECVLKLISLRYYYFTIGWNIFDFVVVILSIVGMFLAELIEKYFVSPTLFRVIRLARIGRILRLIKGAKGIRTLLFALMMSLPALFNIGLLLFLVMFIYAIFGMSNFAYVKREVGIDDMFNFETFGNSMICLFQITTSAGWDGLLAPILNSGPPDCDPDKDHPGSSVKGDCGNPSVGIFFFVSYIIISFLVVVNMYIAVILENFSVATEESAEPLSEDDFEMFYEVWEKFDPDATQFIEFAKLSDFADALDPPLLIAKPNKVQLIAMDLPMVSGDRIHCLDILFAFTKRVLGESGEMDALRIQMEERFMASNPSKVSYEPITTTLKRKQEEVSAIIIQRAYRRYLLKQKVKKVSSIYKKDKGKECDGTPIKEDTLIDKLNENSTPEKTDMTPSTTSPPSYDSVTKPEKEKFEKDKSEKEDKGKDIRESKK
Sequence (Q9NY46 whole entry, looked up, other chains not shown): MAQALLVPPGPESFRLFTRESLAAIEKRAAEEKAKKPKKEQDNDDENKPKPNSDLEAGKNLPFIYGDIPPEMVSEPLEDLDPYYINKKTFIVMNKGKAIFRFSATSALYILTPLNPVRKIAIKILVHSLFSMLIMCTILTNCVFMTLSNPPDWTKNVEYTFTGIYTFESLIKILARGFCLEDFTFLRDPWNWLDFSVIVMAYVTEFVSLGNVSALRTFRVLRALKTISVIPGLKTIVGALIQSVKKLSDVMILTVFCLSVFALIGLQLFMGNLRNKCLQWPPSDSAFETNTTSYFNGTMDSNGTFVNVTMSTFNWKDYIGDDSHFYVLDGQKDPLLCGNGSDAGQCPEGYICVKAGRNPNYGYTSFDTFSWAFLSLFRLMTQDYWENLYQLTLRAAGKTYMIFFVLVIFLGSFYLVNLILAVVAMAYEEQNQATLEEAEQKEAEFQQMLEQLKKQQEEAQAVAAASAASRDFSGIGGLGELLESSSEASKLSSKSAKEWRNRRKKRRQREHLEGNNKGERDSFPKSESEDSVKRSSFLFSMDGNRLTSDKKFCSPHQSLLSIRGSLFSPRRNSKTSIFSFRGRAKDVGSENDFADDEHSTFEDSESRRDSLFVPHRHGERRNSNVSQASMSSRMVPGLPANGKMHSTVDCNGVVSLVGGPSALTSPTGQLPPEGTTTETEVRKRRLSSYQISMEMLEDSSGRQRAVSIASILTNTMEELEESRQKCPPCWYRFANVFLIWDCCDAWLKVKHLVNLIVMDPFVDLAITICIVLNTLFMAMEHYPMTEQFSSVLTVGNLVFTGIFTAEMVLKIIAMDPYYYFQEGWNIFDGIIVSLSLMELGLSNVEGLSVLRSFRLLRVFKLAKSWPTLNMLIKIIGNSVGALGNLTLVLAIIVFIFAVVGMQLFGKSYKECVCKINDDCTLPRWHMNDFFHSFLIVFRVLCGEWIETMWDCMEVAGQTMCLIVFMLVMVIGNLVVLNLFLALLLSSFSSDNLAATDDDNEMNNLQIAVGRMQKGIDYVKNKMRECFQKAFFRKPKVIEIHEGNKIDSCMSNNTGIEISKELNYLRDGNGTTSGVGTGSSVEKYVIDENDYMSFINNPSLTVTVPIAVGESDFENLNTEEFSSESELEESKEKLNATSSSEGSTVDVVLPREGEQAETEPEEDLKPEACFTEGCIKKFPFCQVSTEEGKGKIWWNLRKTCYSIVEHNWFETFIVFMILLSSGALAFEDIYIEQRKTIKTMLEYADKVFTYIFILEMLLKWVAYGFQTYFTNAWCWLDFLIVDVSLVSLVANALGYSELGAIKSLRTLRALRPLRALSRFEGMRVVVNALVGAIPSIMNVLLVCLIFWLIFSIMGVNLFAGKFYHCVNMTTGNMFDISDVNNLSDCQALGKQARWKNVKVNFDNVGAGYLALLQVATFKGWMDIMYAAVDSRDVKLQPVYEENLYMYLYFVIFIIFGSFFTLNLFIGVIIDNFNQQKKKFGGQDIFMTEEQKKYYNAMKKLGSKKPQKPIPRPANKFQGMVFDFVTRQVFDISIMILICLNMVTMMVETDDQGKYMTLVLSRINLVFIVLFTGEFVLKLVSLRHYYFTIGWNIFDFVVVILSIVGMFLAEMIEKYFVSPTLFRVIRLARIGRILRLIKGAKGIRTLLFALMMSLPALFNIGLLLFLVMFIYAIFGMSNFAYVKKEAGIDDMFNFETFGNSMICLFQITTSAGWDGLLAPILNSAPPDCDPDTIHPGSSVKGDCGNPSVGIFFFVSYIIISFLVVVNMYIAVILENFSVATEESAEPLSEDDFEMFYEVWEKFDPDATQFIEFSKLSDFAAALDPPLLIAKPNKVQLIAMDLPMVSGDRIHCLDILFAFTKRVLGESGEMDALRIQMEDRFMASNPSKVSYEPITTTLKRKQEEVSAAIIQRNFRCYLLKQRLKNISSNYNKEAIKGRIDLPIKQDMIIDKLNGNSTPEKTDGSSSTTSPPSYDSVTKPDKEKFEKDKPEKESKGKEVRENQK
SETUP_CONDITIONS: Cavia porcellus; Cerebral cortex; at 10 µM
Assignment: determine reported inhibition for the given compounds.
Quick reminder: number only, in %, skip the unit.

*Q* Find the measured inhibition of OC(CCN1CCCCC1)(c1ccccc1)C1CC2C=CC1C2 (stereo not drawn) and report it.
*A* 62.9

*Q* Find the measured inhibition of CCCCc1cc2ccccc2c(OCCN(C)C)n1 and report it.
*A* 73.4

*Q* Find the measured inhibition of CCCC[N+]1(C)CCCCC1C(=O)Nc1c(C)cccc1C.[I-] (stereo not drawn) and report it.
*A* 64.5

*Q* Find the measured inhibition of CCCC(C(=O)OCCN(CC)CC)(c1ccccc1)c1ccccc1 and report it.
*A* 75.4

*Q* Find the measured inhibition of CC(C)NCC(O)c1ccc([N+](=O)[O-])cc1 (stereo not drawn) and report it.
*A* 7.9

*Q* Find the measured inhibition of CCCNC(C)C(=O)Nc1ccccc1C (stereo not drawn) and report it.
*A* 14.2

*Q* Find the measured inhibition of CCCOc1ccc(C(=O)OCCN(CC)CC)cc1N and report it.
*A* 79.9

*Q* Find the measured inhibition of CCOc1ccc(/N=C(\C)Nc2ccc(OCC)cc2)cc1 and report it.
*A* 81.1

*Q* Find the measured inhibition of CN/C(=N\CCSCc1nc[nH]c1C)NC#N and report it.
*A* 0

*Q* Find the measured inhibition of CC(C)NCC(O)c1ccc(Cl)c(Cl)c1 (stereo not drawn) and report it.
*A* 53

*Q* Find the measured inhibition of COC(=O)[C@H]1[C@@H](OC(=O)c2ccccc2)C[C@@H]2CC[C@H]1N2C and report it.
*A* 19.5

*Q* Find the measured inhibition of CC(=O)Nc1ccc(OCC(O)CNC(C)C)cc1 (stereo not drawn) and report it.
*A* 8.4

*Q* Find the measured inhibition of COC(=O)C1=C(C)NC(C)=C(C(=O)OCC(C)C)C1c1ccccc1[N+](=O)[O-] (stereo not drawn) and report it.
*A* 25.9

*Q* Find the measured inhibition of CC1CCCCN1CCCOC(=O)c1ccccc1 (stereo not drawn) and report it.
*A* 43.6

*Q* Find the measured inhibition of CC[N+](CC)(CC)CC and report it.
*A* 1.4

*Q* Find the measured inhibition of NC[C@H](CC(=O)O)c1ccc(Cl)cc1 and report it.
*A* 11.7

*Q* Find the measured inhibition of COC(=O)C1=C(C)NC(C)=C(C(=O)OC)C1c1ccccc1[N+](=O)[O-] and report it.
*A* 26

*Q* Find the measured inhibition of CN(C)CCCN1c2ccccc2CCc2ccccc21 and report it.
*A* 72.7

---

TGT: Sodium channel alpha subunits; brain (Types I, II, III) (Homo sapiens, UniProt P35498+Q99250+Q9NY46)
SETUP_CONDITIONS: Cavia porcellus; Cerebral cortex; at 10 µM
Quick rule: inhibition of at least 70% means YES, below that means NO.

*Q* Identify whether the reported inhibition of the following molecule is 70% or greater: CCOC(=O)C1=C(C)NC(C)=C(C(=O)OC)C1c1cccc(Cl)c1Cl (stereo not given)
*A* NO

*Q* Identify whether the reported inhibition of the following molecule is 70% or greater: OC(CCCN1CCCCC1)(c1ccccc1)c1ccccc1
*A* NO

*Q* Identify whether the reported inhibition of the following molecule is 70% or greater: CN(C)C(=O)C(CCN1CCC(O)(c2ccc(Cl)cc2)CC1)(c1ccccc1)c1ccccc1 [LOPERAMIDE]
*A* YES
